# Tested on: HOP-62
# assay-explanation: NCI tumour cell line growth inhibition, 48 h
Active and inactive are the calls of the source. Rule as the data show it: active = GI50 up to about 1.1 µM and inactive = higher.
Classes used: True = active, False = inactive

[
  {
    "compound": "CCCCC(=O)/C=c1/cc(C)[nH]c2cccc3cnn1c32",
    "category": "False"
  },
  {
    "compound": "O=C(N/C(=C/c1ccc(Cl)cc1)c1nc2ccccc2c(=O)n1Nc1ccc([N+](=O)[O-])cc1[N+](=O)[O-])c1ccccc1",
    "category": "False"
  },
  {
    "compound": "CN1C2CCC1/C(=C/c1cccc3c1OCO3)C(=O)/C2=C\\c1cccc2c1OCO2",
    "category": "False"
  },
  {
    "compound": "COc1ccc(N2C(=O)[C@@H]3[C@H](C2=O)c2[nH]c4ccccc4c2C2CCC(C(C)(C)C)C[C@@H]23)cc1 (stereo partly drawn)",
    "category": "False"
  },
  {
    "compound": "CC1(C)CC(=O)c2c(nc3c4c([nH]c(-c5ccc([N+](=O)[O-])cc5)c24)CC(C)(C)C3)C1",
    "category": "False"
  },
  {
    "compound": "COc1ccc(C(c2ccc(C(C)C)cc(=O)c2O)c2ccc3cccnc3c2O)cc1 (stereo not drawn)",
    "category": "True"
  },
  {
    "compound": "Cc1ccccc1C1=[N+]([O-])c2ccc(Cl)cc2C1=O",
    "category": "False"
  },
  {
    "compound": "CC(=O)Nc1ccc(C(=O)NN2C(=O)C(Cl)C2c2cccc([N+](=O)[O-])c2)cc1 (stereo not drawn)",
    "category": "False"
  },
  {
    "compound": "CCCCCCCCCCCCCCCCOCC(Cl)COP(=O)(O)OP(=O)(O)OCC1OC(n2cnc3c(N)ncnc32)C(O)C1O (stereo not drawn)",
    "category": "False"
  },
  {
    "compound": "O=C1CCCC[C@H]1[C@H]1CCC[C@@H]([C@H]2CCCCC2=O)C1=O",
    "category": "False"
  },
  {
    "compound": "COC(=O)[C@]1(C)CCC[C@@]2(C)C1CCC1=CC3(C(C)C)CCC12OO3 (stereo partly drawn)",
    "category": "False"
  },
  {
    "compound": "CN(C)Cc1ccc(C(C)(C)C)cc1-c1cc(C(C)(C)C)ccc1CN(C)C",
    "category": "False"
  },
  {
    "compound": "C=C1c2nc3ccccc3n2C=C(c2ccc(OC)cc2)N1c1ccccc1",
    "category": "False"
  },
  {
    "compound": "Oc1ccc(C(=C(Br)c2ccccc2)c2ccc(O)cc2)cc1",
    "category": "False"
  },
  {
    "compound": "N#CC(C(=O)O)C(c1c(Cl)cccc1Cl)C(C#N)C(=O)O (stereo not drawn)",
    "category": "False"
  },
  {
    "compound": "Cc1nnc2nc(-c3ccc(Cl)cc3Cl)cc(-c3ccc(Cl)cc3)n12",
    "category": "False"
  },
  {
    "compound": "NCC(=O)N[C@H]1c2ccsc2/C(=N/O)[C@H]1O",
    "category": "False"
  },
  {
    "compound": "COc1ccc(C(SCCO)(c2ccccc2)c2ccc(OC)cc2)cc1",
    "category": "False"
  },
  {
    "compound": "CCOC(=O)c1c(-c2ccc(OC)cc2)c(C#N)c(=S)n(C2OC(COC(C)=O)C(OC(C)=O)C(OC(C)=O)C2OC(C)=O)c1C (stereo not drawn)",
    "category": "False"
  },
  {
    "compound": "O=C(CCCN1CCC(O)(c2ccc(Cl)cc2)CC1)c1ccc(F)cc1",
    "category": "False"
  },
  {
    "compound": "CN1C(=O)[C@@H]2[C@@H]3c4ccccc4N(S(=O)(=O)C(F)(F)F)[C@@H]3c3[nH]c4ccccc4c3[C@@H]2C1=O",
    "category": "False"
  },
  {
    "compound": "COc1cccc2c1C(=O)c1c(O)c3c(c(O)c1C2=O)CC(O)(C(C)=O)CC3OC1CC([N+](C)(C)C)C(O)C(C)O1 (stereo not drawn)",
    "category": "False"
  },
  {
    "compound": "CCOC(=O)c1c(-c2cccc(Cl)c2)c(C(=O)OC)c(C)c2sc(C=O)nc12",
    "category": "False"
  },
  {
    "compound": "CC1(C)CC(=O)C(=CNc2nc(-c3ccccc3)cs2)C(=O)C1",
    "category": "False"
  },
  {
    "compound": "CN(C)c1nc(-c2ccccc2)c(C(=O)c2c[nH]c3ccccc23)s1",
    "category": "False"
  },
  {
    "compound": "Cc1c(CCO)c(O)n2c(nc3ccccc32)c1C#N",
    "category": "False"
  },
  {
    "compound": "O=S(=O)(Oc1ccc2ccccc2c1-c1c(OS(=O)(=O)C(F)(F)F)ccc2ccccc12)C(F)(F)F",
    "category": "False"
  },
  {
    "compound": "N#Cc1c(-c2ccc([N+](=O)[O-])cc2)c(C#N)c(=O)n(NS(=O)(=O)c2ccccc2)c1O",
    "category": "False"
  },
  {
    "compound": "CC12CC3CC(C1)CC(N=[N+]=[N-])(C3)C2",
    "category": "False"
  },
  {
    "compound": "C/C(=C\\[Si](C)(C)c1ccco1)C(C)(O)[C@H](C)O (stereo partly drawn)",
    "category": "False"
  },
  {
    "compound": "COC(=O)C(=O)Nc1cc2c3c(c1)Oc1cccc4c1C3(C)c1c(cccc1O2)O4",
    "category": "False"
  },
  {
    "compound": "COC(=O)CCC(NC(=S)N/N=C(\\C)c1nccs1)C(=O)OC (stereo not drawn)",
    "category": "False"
  },
  {
    "compound": "O=C(CC1Sc2ccccc2NC1=O)Nc1ccc(Cl)cc1 (stereo not drawn)",
    "category": "False"
  },
  {
    "compound": "C/C(Cl)=N\\OC(=O)Nc1ccc(C)cc1",
    "category": "False"
  },
  {
    "compound": "OC1(C(O)(c2ccc(-c3ccccc3)cc2)c2ccc(-c3ccccc3)cc2)CCCCC1",
    "category": "False"
  },
  {
    "compound": "CC1=C(C2=C(C)C(=O)c3c(c(C=O)c(O)c(O)c3C(C)C)C2=O)C(=O)c2c(C=O)c(O)c(O)c(C(C)C)c2C1=O",
    "category": "False"
  },
  {
    "compound": "CC(=O)Oc1cc(/C=C/c2ccc(O)cc2)cc(OC(C)=O)c1",
    "category": "False"
  },
  {
    "compound": "CCCN(CCCCC(NC(C)=O)C(=O)NCc1ccccc1)C(=O)N(C)N=O (stereo not drawn)",
    "category": "False"
  }
]
